Exercise: for every item that follows, state its recorded Ratio EC50.
- Test system: CHO
- PROTOCOL: Selectivity for human cloned adrenergic beta-1 receptor over human cloned adrenergic beta3 receptor expressed in CHO cells
- Format: cell-based
Answers are plain numbers.

O=C(O)c1cc(Oc2cccc(CCNC[C@H](O)c3cccc(Cl)c3)c2)ccc1F 15

For each of the compounds below, state Ratio EC50.
1. CC(=O)Nc1cc(Oc2cccc(CCNC[C@H](O)c3cccc(Cl)c3)c2)cc(C(=O)O)c1
2. O=C(O)c1cc(NC(=O)c2ccccc2)cc(Oc2cccc(CCNC[C@H](O)c3cccc(Cl)c3)c2)c1
3. CC(=O)Nc1ccc(Oc2cccc(CCNC[C@H](O)c3cccnc3)c2)cc1C(=O)O
4. CC(=O)Nc1ccc(Oc2cccc(CCNC[C@H](O)c3cccc(Cl)c3)c2)cc1C(=O)O
5. O=C(Nc1ccc(Oc2cccc(CCNC[C@H](O)c3cccc(Cl)c3)c2)cc1C(=O)O)c1ccccc1
6. O=C(O)c1cc(Oc2cccc(CCNC[C@H](O)c3cccc(Cl)c3)c2)ccc1Cl

stdout:
1: 37; 2: 9; 3: 16; 4: 53; 5: 15; 6: 6.7
